Answer each item with its documented EC50.
experimentalTarget: human cannabinoid CB2 receptor (Homo sapiens)
Construct: expressed in transfected cells; host or cells: Saccharomyces cerevisiae strain MMY23 (cassette integrated at the ura3 locus; chimeric Gpa1/Gαi3)
Sequence (P34972 whole entry): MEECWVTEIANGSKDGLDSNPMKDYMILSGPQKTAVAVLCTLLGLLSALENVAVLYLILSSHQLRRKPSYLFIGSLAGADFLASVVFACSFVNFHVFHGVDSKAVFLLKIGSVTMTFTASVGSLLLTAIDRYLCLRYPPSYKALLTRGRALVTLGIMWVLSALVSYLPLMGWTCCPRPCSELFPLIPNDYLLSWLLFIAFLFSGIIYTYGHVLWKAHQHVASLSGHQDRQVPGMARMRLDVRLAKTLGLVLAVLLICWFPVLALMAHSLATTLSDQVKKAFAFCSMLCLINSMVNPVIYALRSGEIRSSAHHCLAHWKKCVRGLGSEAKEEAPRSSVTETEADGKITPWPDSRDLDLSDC
assayDetails: Cannabinoid CB2 receptor agonist activity, yeast (Saccharomyces cerevisiae) cells expressing the receptor, FDGlu fluorescence
Format: cell-based
runConditions: yeast agonist assay; read-out: EC50 at the cloned human cannabinoid CB2 receptor
Experimental: The cannabinoid CB2 receptor agonist activity of the compounds of formula (I) was determined in accordance with the following experimental method. […] Agonists were prepared as 10 mM stocks in DMSO. […] Fluorescence was plotted against compound concentration and iteratively curve fitted using a four parameter fit to generate a concentration effect value. Efficacy (Emax) was calculated from the equation […]
Where a name gives a salt, the structure may show the parent alone.

Give reported EC50 value for CCCNCc1cnc(Nc2cccc(Cl)c2)nc1C(F)(F)F [Example 19]
< 300 nM

Give reported EC50 value for Clc1cccc(Nc2ncc(CNCC3CC3)c(C3CC3)n2)c1 [Example 3]
< 300 nM

Give reported EC50 value for CC(C)CNCc1cnc(Nc2cccc(C#N)c2)nc1C(F)(F)F [Example 59, formate]
300 to 1000 nM

Give reported EC50 value for FC(F)(F)c1nc(Nc2ccc(Cl)cc2Cl)ncc1CN1CCCC1 [Example 53]
300 to 1000 nM

Give reported EC50 value for CC(NCC1CC1)c1cnc(Nc2cccc(F)c2)nc1C(F)(F)F (stereo not shown) [Example 94, formate]
< 300 nM

Give reported EC50 value for Fc1cccc(Nc2ncc(CNC3CC3)c(C(F)(F)F)n2)c1 [Example 38]
< 300 nM

Give reported EC50 value for FC(F)(F)c1nc(Nc2cccc(Cl)c2)ncc1CNCC1CCCCC1 [Example 12]
300 to 1000 nM

Give reported EC50 value for COCCNCc1cnc(Nc2cccc(Cl)c2)nc1C(C)(C)C [Example 101]
< 300 nM

Give reported EC50 value for FC(F)(F)c1nc(Nc2cccc(Cl)c2)ncc1CNCC1CCOCC1 [Example 15]
< 300 nM

Give reported EC50 value for Fc1cc(CNCc2cnc(Nc3cccc(Cl)c3)nc2C(F)(F)F)ccn1 [Example 96, formate]
300 to 1000 nM

Give reported EC50 value for Fc1cccc(Nc2ncc(CNCC3CC3)c(C(F)(F)F)n2)c1 [Example 54]
300 to 1000 nM

Give reported EC50 value for CC(C)CNC(C)c1cnc(Nc2cccc(Cl)c2)nc1C(F)(F)F (stereo not shown) [Example 92, formate]
< 300 nM

Give reported EC50 value for CC(NCC1CCOCC1)c1cnc(Nc2cccc(Cl)c2)nc1C(F)(F)F (stereo not shown) [Example 88, formate]
< 300 nM

Give reported EC50 value for CC(C)(C)c1nc(Nc2cccc(Cl)c2)ncc1CNCC1CCOCC1 [Example 99]
< 300 nM

Give reported EC50 value for CC(C)(C)c1nc(Nc2cccc(Cl)c2)ncc1CNCc1ccc(F)cc1 [Example 100, hydrochloride]
< 300 nM

Give reported EC50 value for FC(F)(F)c1nc(Nc2cccc(Cl)c2)ncc1CNCCCc1ccccc1 [Example 46, formate]
300 to 1000 nM

Give reported EC50 value for Clc1cccc(Nc2ncc(CNC3CCC3)c(C3CC3)n2)c1 [Example 1]
< 300 nM

Give reported EC50 value for CC(C)(C)c1nc(Nc2cccc(Cl)c2)ncc1CNCC1CC1 [Example 103]
< 300 nM

Give reported EC50 value for CC(C)c1nc(Nc2cccc(Cl)c2)ncc1CNC1CCC1 [Example 98, hydrochloride]
< 300 nM

Give reported EC50 value for CC(C)(C)c1nc(Nc2cccc(Cl)c2)ncc1CN1CCOCC1 [Example 97, hydrochloride]
< 300 nM

Give reported EC50 value for CC(NCC1CCCCC1)c1cnc(Nc2cccc(Cl)c2)nc1C(F)(F)F (stereo not shown) [Example 89, formate]
< 300 nM

Give reported EC50 value for CC(C)CNCc1cnc(Nc2cccc(F)c2)nc1C(F)(F)F [Example 36, formate]
< 300 nM

Give reported EC50 value for CC(C)CNCc1cnc(Nc2cccc(Cl)c2)nc1C1CC1 [Example 5]
< 300 nM

Give reported EC50 value for Fc1ccc(CNCc2cnc(Nc3cccc(Cl)c3)nc2C(F)(F)F)cc1 [Example 41]
300 to 1000 nM

Give reported EC50 value for Fc1cccc(Nc2ncc(CNCC3CCC3)c(C(F)(F)F)n2)c1 [Example 37]
< 300 nM

Give reported EC50 value for CN(C)Cc1cnc(Nc2cccc(Cl)c2)nc1C(F)(F)F [Example 44, formate]
300 to 1000 nM

Give reported EC50 value for FC(F)(F)c1nc(Nc2cccc(Cl)c2)ncc1CN1CCCCC1 [Example 39]
300 to 1000 nM

Give reported EC50 value for CC(C)CNC(C)c1cnc(Nc2cccc(F)c2)nc1C(F)(F)F (stereo not shown) [Example 87]
< 300 nM
